pIC50: −log10 of the molar value.
System: MAP4K4 (Homo sapiens) | Read-out: pIC50 | Origin: multiple publications

{"Item smiles": "COc1ccc2[nH]c(C(=O)c3ccc4[nH]ncc4c3)c(Cl)c2c1", "pIC50": 6.39}
{"Item smiles": "Cc1cc(Cl)ccc1NC(=O)c1ccc(-c2c(-c3ccc(F)cc3)ncn2C2CCCC2)o1", "pIC50": 7.00}
{"Item smiles": "Nc1ncnc2ccc(-c3cccnc3-c3cccc(O)c3)cc12", "pIC50": "> 6.30"}
{"Item smiles": "CCCS(=O)(=O)Nc1ccc(F)c(C(=O)c2c[nH]c3ncc(C(F)(F)F)cc23)c1F", "pIC50": "≥ 5.00"}
{"Item smiles": "O=C(Nc1ccc(N2CCNCC2)cc1)c1c[nH]c(-c2c(-c3ccc(F)cc3)ncn2CC(F)(F)F)n1", "pIC50": "< 6.92"}
{"Item smiles": "Cc1ccc(NC(=O)c2ccc(-c3c(-c4ccc(F)cc4)ncn3C3CCCC3)o2)c(C)c1", "pIC50": 7.01}
{"Item smiles": "Fc1ccc(CNc2nc(Cl)c(Cc3c[nH]c4ncccc34)s2)cc1", "pIC50": "> 6.00"}
{"Item smiles": "O=C(c1c(F)ccc(NS(=O)(=O)c2ccccc2)c1F)c1c[nH]c2ncc(Cl)cc12", "pIC50": "≥ 5.00"}

Fill in: pIC50 of "Fc1cncc(CNc2nc(Cl)c(Cc3c[nH]c4ncc(Cl)cc34)s2)c1" is ___
> 6.00

Same question, "COc1cc(NC(=O)c2ccc(-c3c(-c4ccc(F)cc4)ncn3C3CCCC3)o2)cc(OC)c1" this time
6.69

Same question, "OCCOc1cccc(Cc2c[nH]c3ncc(-c4ccsc4)cc23)c1" this time
≥ 5.00

Same question, "COc1ccc2[nH]c(C(=O)c3ccc4[nH]ncc4c3)cc2c1Cl" this time
4.92

---

pIC50: −log10 of the molar value.
System: MAP4K4 (Homo sapiens) | Read-out: pIC50 | Origin: multiple publications

Reference set, count: 7
{"Molecule": "COc1cc(OC)cc(C(=O)c2c[nH]c3ncc(-c4cccnc4)cc23)c1", "Target desc": "MAP4K4 (Homo sapiens)", "Quantity": "pIC50", "Reported value": "≥ 5.00"}
{"Molecule": "O=C(Nc1ccncc1F)c1ccc(-c2c(-c3ccc(F)cc3)ncn2[C@@H]2COC[C@H]2F)o1 (racemic)", "Target desc": "MAP4K4 (Homo sapiens)", "Quantity": "pIC50", "Reported value": 7.44}
{"Molecule": "CS(=O)(=O)c1cccc(-c2cnc3[nH]cc(C(=O)c4cccc(NS(=O)(=O)C5CCCCC5)c4)c3c2)c1", "Target desc": "MAP4K4 (Homo sapiens)", "Quantity": "pIC50", "Reported value": "≥ 5.00"}
{"Molecule": "CCCS(=O)(=O)Nc1ccc(F)c(C(=O)c2c[nH]c3ncccc23)c1F", "Target desc": "MAP4K4 (Homo sapiens)", "Quantity": "pIC50", "Reported value": "≥ 5.00"}
{"Molecule": "CCCC(C)S(=O)(=O)Nc1ccc(F)c(C(=O)c2c[nH]c3ncc(OC)cc23)c1F (centres unmarked)", "Target desc": "MAP4K4 (Homo sapiens)", "Quantity": "pIC50", "Reported value": "≥ 5.00"}
{"Molecule": "CS(=O)(=O)Nc1ccc(F)c(C(=O)c2c[nH]c3ncccc23)c1F", "Target desc": "MAP4K4 (Homo sapiens)", "Quantity": "pIC50", "Reported value": "≥ 5.00"}
{"Molecule": "Cc1cnc2[nH]cc(C(=O)c3cccc(NS(=O)(=O)C4CCCCC4)c3)c2c1", "Target desc": "MAP4K4 (Homo sapiens)", "Quantity": "pIC50", "Reported value": "≥ 5.00"}

Now for another entry.
Fill in: pIC50 of "COc1cc(NC(=O)c2ccc(-c3c(-c4ccc(C)cc4)ncn3C3CCCCC3)o2)cc(OC)c1" is ___
< 6.00
